B1: HDV Ribozyme (parent)
chain: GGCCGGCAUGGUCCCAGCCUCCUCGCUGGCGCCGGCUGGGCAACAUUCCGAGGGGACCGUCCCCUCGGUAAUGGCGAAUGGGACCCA

variants of: B1; assay: self-cleavage, relative activity (ratio to wild type); higher = more cleavage; co-transcriptional
Entries are grouped by self-cleavage into these classes: Low = under 0.1, Mid = from 0.1 up to 0.5, High = 0.5 and over

Examples from the recorded data:
> print(dat)
   mutant.name  group.label
1     A8G C48A         High
2     C4G G40C          Mid
3    C44G G81U          Mid
4    U12G U65C         High
5    U27C A70G         High

Task item: // bin(item) where item = G17U U72A
Reply: Mid

Task item: Kindly state the category for this variant: A16G C49G
Reply: High
